assayed.system: human A2B (Homo sapiens, UniProt P29275)
Sequence (P29275 1-332): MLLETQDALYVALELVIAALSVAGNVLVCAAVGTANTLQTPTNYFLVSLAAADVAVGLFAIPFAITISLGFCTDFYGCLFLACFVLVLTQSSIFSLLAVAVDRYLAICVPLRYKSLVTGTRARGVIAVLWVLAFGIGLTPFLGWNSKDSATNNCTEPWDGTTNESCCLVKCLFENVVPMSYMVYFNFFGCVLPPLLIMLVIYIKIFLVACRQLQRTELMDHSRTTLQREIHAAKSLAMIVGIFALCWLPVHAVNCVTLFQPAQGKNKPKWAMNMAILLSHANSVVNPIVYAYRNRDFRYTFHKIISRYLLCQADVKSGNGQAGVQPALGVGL
method: cAMP HTRF assay for Gs coupled receptor, agonist test
condition.parameters: agonist activity; HEK293 cells expressing recombinant human A2B; read-out: A2BAR EC50
Measured EC50 values are reported for all entries that follow.

// below: answered compounds
[[record]]
compound = "COCCOc1ccc(-c2c(C#N)c(SCc3cccnn3)nc(C3CC3)c2C#N)cc1 [Compound 233]"
assayed_system = "human A2B (Homo sapiens, UniProt P29275)"
assay_value = "> 10 µM"

[[record]]
compound = "N#Cc1c(SCc2cccnc2)nc(N2CC(F)(F)C2)c(C#N)c1-c1ccc(OCCOC(F)F)cc1 [Compound 264]"
assayed_system = "human A2B (Homo sapiens, UniProt P29275)"
assay_value = "> 10 µM"

[[record]]
compound = "COCCOc1ccc(-c2c(C#N)c(N)nc(SCc3cccc4[nH]ccc34)c2C#N)cc1 [Compound 67]"
assayed_system = "human A2B (Homo sapiens, UniProt P29275)"
assay_value = "> 10 µM"

[[record]]
compound = "N#Cc1c(N)nc(OC[C@H]2CCOC2)c(C#N)c1-c1ccc(OC2COC2)cc1 [Compound 290]"
assayed_system = "human A2B (Homo sapiens, UniProt P29275)"
assay_value = "> 10 µM"

[[record]]
compound = "CC1(CSc2nc(N)c(C#N)c(-c3ccc(OC4COC4)cc3)c2C#N)COC1 [Compound 226]"
assayed_system = "human A2B (Homo sapiens, UniProt P29275)"
assay_value = "> 10 µM"

[[record]]
compound = "COCCOc1ccc(-c2c(C#N)c(N)nc(SCc3ccc4cc[nH]c4c3)c2C#N)cc1 [Compound 44]"
assayed_system = "human A2B (Homo sapiens, UniProt P29275)"
assay_value = "> 10 µM"

[[record]]
compound = "COCCOc1ccc(-c2c(C#N)c(N)nc(SCCNC(C)=O)c2C#N)cc1 [Compound 120]"
assayed_system = "human A2B (Homo sapiens, UniProt P29275)"
assay_value = "> 10 µM"

[[record]]
compound = "N#Cc1c(SCc2cccnc2)nc(N2CCCC2)c(C#N)c1-c1ccc(OCCOC(F)F)cc1 [Compound 257]"
assayed_system = "human A2B (Homo sapiens, UniProt P29275)"
assay_value = "> 10 µM"


Query: So what's the measured EC50 for this one? N#Cc1c(N)nc(OCCC2COC2)c(C#N)c1-c1ccc(OC2COC2)cc1 [Compound 307]
Reply: > 10 µM

Query: Then Cc1ccc(CSc2nc(N3CCC3)c(C#N)c(-c3ccc(OCCO)cc3)c2C#N)cn1 [Compound 69] ?
Reply: 0.0263 µM

Query: Then CNc1nc(SCc2cccnc2)c(C#N)c(-c2ccc(OCCOC)cc2)c1C#N [Compound 284] ?
Reply: > 10 µM

Query: Then CC(C)(O)COc1ccc(-c2c(C#N)c(N)nc(SCC3COC3)c2C#N)cc1 [Compound 317] ?
Reply: > 10 µM

Query: Then N#Cc1c(N)nc(SCC2COC2)c(C#N)c1-c1ccc(OCCO)cc1 [Compound 319] ?
Reply: 0.401 µM

Attribution: patent US20250170112A1
